# MEASUREMENT_TARGET: β-lactamase (Enterobacter cloacae)
# Construct: obtained by destruction of the microbial cells with ultrasonic waves; endogenous in cells
# Sequence (P05364 21-381): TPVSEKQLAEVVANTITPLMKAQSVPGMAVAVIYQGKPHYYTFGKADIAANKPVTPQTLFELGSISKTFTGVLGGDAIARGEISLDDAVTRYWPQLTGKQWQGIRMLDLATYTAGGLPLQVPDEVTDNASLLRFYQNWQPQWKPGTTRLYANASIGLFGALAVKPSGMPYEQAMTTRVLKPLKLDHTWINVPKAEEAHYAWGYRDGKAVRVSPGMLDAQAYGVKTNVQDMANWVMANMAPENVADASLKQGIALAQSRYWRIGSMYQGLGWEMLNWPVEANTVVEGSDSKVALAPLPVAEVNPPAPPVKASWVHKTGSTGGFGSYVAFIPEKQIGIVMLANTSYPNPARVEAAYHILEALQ
# TEST_DETAILS: β-lactamase inhibition (iodometric absorbance at 575 nm; β-lactamase solution obtained by ultrasonic destruction of microbial cells)
# Assay type: biochemical
# MEASUREMENT_SETUP: Enterobacter cloacae used as the β-lactamase-producing microorganism; pH 7.0, 30° C., 20 minutes; sample concentration not given
# Description: A phosphate buffer solution (pH 7.0, 0.5M, 0.2 ml), a sample*, which is a β-lactamase inhibiting agent, dissolved in the same buffer solution as mentioned above, and water (10 ml) were put in a test tube. […] The reaction was stopped by adding sodium tungstate (0.15M, pH 4.0, 1 ml) and an iodo reagent (3 ml) having iodine (0.1 mM), potassium iodide (1.6 mM) and 0.4% starch solution, (pH 6.0) was added thereto and was allowed to stand for 20 minutes. The absorbance was determined at 575 nm. […]
PARAMETER_MEASURED: Inhibiting Ratio (%)
// return numeric value only (unit: %, not printed)

Some entries whose results are on file:
// lookup Inhibiting Ratio (%) for CC(C)=C(C(=O)O)N1C(=O)[C@@H](N)[C@H]1S(C)(=O)=O
35.8

Given the entry COC(=O)C(C(=O)O)N1C(=O)CC1SC (stereo not shown) , report its measured Inhibiting Ratio (%).
46.2

Fill in the blank: the reported Inhibiting Ratio (%) of CC(C)=C(C(=O)O)N1C(=O)[C@@H](NC(=O)[C@H](N)c2ccccc2)[C@H]1S(C)(=O)=O is ____.
27.6

Turning now to a further compound:
Fill in: Inhibiting Ratio (%) of COC(=O)C(C(=O)O)N1C(=O)CC1S(C)(=O)=O (stereo not shown) is ___
51.4
